Origin of values: patent US9988381B2

# System: BaF3/TPR-Met cell
# Protocol Text: Test III: growth inhibition of engineered BaF3/TPR-Met cells (MTT)
# Format: cell-based
# Particulars: Mus musculus, BaF3, 72 h, read-out: Cell proliferation inhibition rate at 200 nM (%)
Quantity Name: inhibition at 0.2 µM (%)

| Molecule | Test Value |
| --- | --- |
| CN1CCN(C(=O)c2ccc(-c3cnc4cnn(S(=O)(=O)c5cnc6ccccn56)c4c3)cc2)CC1 | 59.5 |
| Cn1cc(-c2cnc3cnn(S(=O)(=O)c4cnc5ccccn45)c3c2)cn1 | 91.8 |
| CC(C)(C)OC(=O)N1CCC(n2cc(-c3cnc4cnn(S(=O)(=O)c5cnc6ccccn56)c4c3)cn2)CC1 | 95 |

---

# key: entry, value: inhibition at 1 µM
# Tested on: BaF3/TPR-Met cell
# Protocol Text: Test III: growth inhibition of engineered BaF3/TPR-Met cells (MTT)
# Format: cell-based
# Particulars: Mus musculus, read-out: Cell proliferation inhibition rate at 1 μM (%); BaF3/TPR-Met, 1 μM, 72 hours

| Molecule | inhibition at 1 µM / % |
| --- | --- |
| CC(C)(C)OC(=O)N1CCC(n2cc(-c3cnc4cnn(S(=O)(=O)c5cnc6cccnn56)c4c3)cn2)CC1 [Example 49] | 90.5 |
| O=S(=O)(c1cnc2cccnn12)n1ncc2ncc(-c3cnn(C4CCNCC4)c3)cc21 [Example 51] | 7.7 |
| O=C(C1CCCC1)N1CCC(n2cc(-c3cnc4cnn(S(=O)(=O)c5cnc6ccccn56)c4c3)cn2)CC1 [Example 56] | 90.6 |
| Cn1cc(-c2cnc3cnn(S(=O)(=O)c4cnc5cccnn45)c3c2)cn1 [Example 21] | 42.7 |
| CC(C)N1CCC(n2cc(-c3cnc4cnn(S(=O)(=O)c5cnc6ccccn56)c4c3)cn2)CC1 [Example 59] | 89.8 |
| O=S(=O)(c1cnc2ccccn12)n1ncc2ncc(-c3cnn(C4CCN(C5CCCC5)CC4)c3)cc21 [Example 60] | 89.4 |

---

# System: c-Met kinase domain recombinant protein (Homo sapiens, UniProt P08581)
# Construct: 50 μL diluted solution of c-Met kinase domain recombinant protein in reaction buffer was added to initiate the reaction
# Sequence (P08581 1078-1345 limits assumed): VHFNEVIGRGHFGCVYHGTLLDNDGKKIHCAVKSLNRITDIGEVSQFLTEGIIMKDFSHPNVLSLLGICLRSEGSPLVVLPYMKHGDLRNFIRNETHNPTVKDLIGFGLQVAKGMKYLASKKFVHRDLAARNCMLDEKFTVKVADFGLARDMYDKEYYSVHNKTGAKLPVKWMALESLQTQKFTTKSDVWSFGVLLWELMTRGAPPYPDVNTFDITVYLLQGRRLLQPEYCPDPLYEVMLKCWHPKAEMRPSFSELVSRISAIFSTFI
# Protocol Text: biochemical
Reported IC50 maps to class as: group 1 (below 1 nM), group 2 (1 nM to below 4 nM), group 3 (4 nM or more)

| Compound | Discrete Label |
| --- | --- |
| COc1ccc2cc(-c3cnc4cnn(S(=O)(=O)c5cnc6ccc(OC)cn56)c4c3)ccc2c1 [Example 123] | group 3 |
| COc1ccc(-c2cnc3cnn(S(=O)(=O)c4cnc5ccc(O)cn45)c3c2)cc1 [Example 126] | group 3 |
| O=C(C1CC1)N1CCC(n2cc(-c3cnc4cnn(S(=O)(=O)c5cnc6ccccn56)c4c3)cn2)CC1 [Example 55] | group 2 |
| Cn1cc(-c2cnc3cnn(S(=O)(=O)c4cnn5cccnc45)c3c2)cn1 [Example 22] | group 3 |
| Cn1cc(-c2ccc3ncc(S(=O)(=O)n4ncc5ncc(-c6cnn(C7CCNCC7)c6)cc54)n3c2)cn1 [Example 140] | group 1 |
| Cn1cc(-c2ccc3ncc(S(=O)(=O)n4ncc5ncc(-c6cnn(C7CCN(C8CCCC8)CC7)c6)cc54)n3c2)cn1 [Example 136] | group 2 |
| CN1CCN(C(=O)c2ccc(-c3cnc4cnn(S(=O)(=O)c5cnc6ccccn56)c4c3)cc2)CC1 [Example 37] | group 3 |
| Cn1cc(-c2cnc3cnn(S(=O)(=O)c4cnc5ccc(-c6ccc7c(c6)OCO7)cn45)c3c2)cn1 [Example 98] | group 2 |
| Cn1cc(-c2cnc3cnn(S(=O)(=O)c4cnc5ccc(-c6ccsc6)cn45)c3c2)cn1 [Example 72] | group 1 |
| Cn1cc(-c2cnc3cnn(S(=O)(=O)c4cnc5ccc(OC(=O)c6ccco6)cn45)c3c2)cn1 [Example 129] | group 2 |
| Cn1cc(-c2cnc3cnn(S(=O)(=O)c4cnc5ccc(Cl)cn45)c3c2)cn1 [Example 24] | group 2 |
| CC(C)C(=O)Oc1ccc2ncc(S(=O)(=O)n3ncc4ncc(-c5cnn(C)c5)cc43)n2c1 [Example 128] | group 2 |
| CC(C)(C)OC(=O)N1CCC(n2cc(-c3cnc4cnn(S(=O)(=O)c5cnc6ccccn56)c4c3)cn2)CC1 [Example 44] | group 3 |
| Cn1cc(-c2ccc3ncc(S(=O)(=O)n4ncc5ncc(-c6ccccc6)cc54)n3c2)cn1 [Example 144] | group 1 |
| O=S(=O)(c1cnc2ccc(O)cn12)n1ncc2ncc(-c3ccccc3)cc21 [Example 127] | group 3 |
| Cn1cc(-c2ccc3ncc(S(=O)(=O)n4ncc5ncc(-c6cn[nH]c6)cc54)n3c2)cn1 [Example 106] | group 2 |
| O=S(=O)(c1cnc2ccc(-c3cn[nH]c3)cn12)n1ncc2ncc(-c3cn[nH]c3)cc21 [Example 104] | group 2 |
| CNC(=O)c1ccc(-c2ccc3ncc(S(=O)(=O)n4ncc5ncc(-c6cnn(C)c6)cc54)n3c2)cc1F [Example 101] | group 1 |
| O=S(=O)(c1cnc2ccccn12)n1ncc2ncc(-c3ccccc3)cc21 [Example 28] | group 3 |
| Cn1cc(-c2cnc3cnn(S(=O)(=O)c4cnc5ccc(-c6ccccc6)cn45)c3c2)cn1 [Example 71] | group 1 |
| Cn1cc(-c2cnc3cnn(S(=O)(=O)c4cnc5ncccn45)c3c2)cn1 [Example 23] | group 2 |
| Cn1cc(-c2ccc3ncc(S(=O)(=O)n4ncc5ncc(-c6ccc(CN7CCOCC7)cc6)cc54)n3c2)cn1 [Example 143] | group 1 |
